Item-by-item account of ELISA luminescence signal at 10 nmol/L peptide, relative to SEQ ID NO: 47 (=1)
Assayed System: T1, Recombinant Human FGFR2 alpha (IIIc) Fc Chimera Protein, CF (R&D systems, 712-FR-050) (human, UniProt P21802 22-377)
T1 construct: bought; not shown: Fc part of the chimera
T1 sequence (P21802 22-377, change not shown): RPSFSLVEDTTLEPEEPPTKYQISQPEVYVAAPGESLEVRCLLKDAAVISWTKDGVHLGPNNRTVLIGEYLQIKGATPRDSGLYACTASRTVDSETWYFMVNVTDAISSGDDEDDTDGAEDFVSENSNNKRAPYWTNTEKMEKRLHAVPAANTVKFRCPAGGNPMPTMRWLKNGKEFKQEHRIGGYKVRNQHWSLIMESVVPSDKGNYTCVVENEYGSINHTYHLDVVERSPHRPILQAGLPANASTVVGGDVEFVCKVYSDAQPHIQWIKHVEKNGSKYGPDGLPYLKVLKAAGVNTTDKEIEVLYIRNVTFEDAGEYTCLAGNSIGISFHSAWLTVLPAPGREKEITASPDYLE
Method Description: ELISA on plate-bound FGFR2-Fc
Bridge positions count the residues as written; N and C are the ends. Ends that are not written are not given here. COCH2 = acetyl group that carries the bridge

Known ELISA luminescence signal at 10 nmol/L peptide, relative to SEQ ID NO: 47 (=1) results, listed for orientation:
Binder	Observed Value
ICPQNFINPVQWRYFQHYK(COCH2)N (thioether 2-19 (inferred)) [cyclic peptide SEQ ID NO: 74]	≥ 0.7 ratio
RCHHNFHHARQHGFFWHYK(COCH2)R (thioether 2-19) [cyclic peptide SEQ ID NO: 389]	0.1 to 0.5 ratio
YCEENYLDYEQYQYFIYFK(COCH2)Y (thioether 2-19 (inferred)) [cyclic peptide SEQ ID NO: 226]	≥ 0.7 ratio
WCEENYLDPEQYQYFIYFK(COCH2)Y (thioether 2-19) [cyclic peptide SEQ ID NO: 142]	≥ 0.7 ratio
KCPQAFINPVQWRYFQHYKN (thioether ring (C)-(K(acetyl))) [cyclic peptide SEQ ID NO: 56]	0.1 to 0.5 ratio
QCPQNFINPVQIRYFQHYK(COCH2)N (thioether 2-19) [cyclic peptide SEQ ID NO: 101]	0.1 to 0.5 ratio

Find the recorded ELISA luminescence signal at 10 nmol/L peptide, relative to SEQ ID NO: 47 (=1) belonging to KCPQNFINAVQWRYFQHYKN (not fully specified; thioether ring (C)-(K(acetyl))) [cyclic peptide SEQ ID NO: 60] and report it.
≥ 0.7 ratio

Find the recorded ELISA luminescence signal at 10 nmol/L peptide, relative to SEQ ID NO: 47 (=1) belonging to QCPQNFINPVQWRYLQHYK(COCH2)N (thioether 2-19 (inferred)) [cyclic peptide SEQ ID NO: 88] and report it.
≥ 0.7 ratio

Find the recorded ELISA luminescence signal at 10 nmol/L peptide, relative to SEQ ID NO: 47 (=1) belonging to YCEENYLDPEQYQYFIPFK(COCH2)Y (thioether 2-19 (inferred)) [cyclic peptide SEQ ID NO: 292] and report it.
0.1 to 0.5 ratio

Find the recorded ELISA luminescence signal at 10 nmol/L peptide, relative to SEQ ID NO: 47 (=1) belonging to QCDQEFYLALYAWTLRSYK(COCH2)L (thioether 2-19) [cyclic peptide SEQ ID NO: 111] and report it.
0.1 to 0.5 ratio

Find the recorded ELISA luminescence signal at 10 nmol/L peptide, relative to SEQ ID NO: 47 (=1) belonging to YCVENYLDPEQYQYFIYFK(COCH2)Y (thioether 2-19) [cyclic peptide SEQ ID NO: 155] and report it.
≥ 0.7 ratio

Hey, just so you know, these numbers are from patent US20260008815A1.
